# Tested on: 941728-121-R-J1-PDC complex spheroid viability
# TEST_SUMMARY: Anticancer human tumor 941728-121-R-J1-PDC patient-derived lung adenocarcinoma cell line growth inhibition [RAS]
# SETUP_CONDITIONS: second compound 0.316 µM; first compound 0.003 µM; active compounds read low
Entries annotated with measured viability, T/C
READOUT_NAME: viability, T/C (%)

[[record]]
molecule = "CCc1c2c(nc3ccc(O)cc13)-c1cc3c(c(=O)n1C2)COC(=O)[C@]3(O)CC + C#Cc1c(F)ccc2cc(O)cc(-c3ncc4c(N5CC6CCC(C5)N6)nc(OCC56CCCN5CC(F)C6)nc4c3F)c12"
reading = 42.4

[[record]]
molecule = "CC1(C)CCC(Nc2ncc(C(F)(F)F)c(-c3c[nH]c4c(P(C)(C)=O)c(C#N)ccc34)n2)CN1 (centres undefined) + C=CC(=O)N1CCN(c2nc(OCC3CCCN3C)nc3c(F)c(-c4nc(N)cc(C)c4C(F)(F)F)c(Cl)cc23)C(C)C1"
reading = 15.8

[[record]]
molecule = "CC1(C)CCC(Nc2ncc(C(F)(F)F)c(-c3c[nH]c4c(P(C)(C)=O)c(C#N)ccc34)n2)CN1 (centres undefined) + C#Cc1c(F)ccc2cc(O)cc(-c3ncc4c(N5CC6CCC(C5)N6)nc(OCC56CCCN5CC(F)C6)nc4c3F)c12"
reading = 46.7

[[record]]
molecule = "CCc1c2c(nc3ccc(O)cc13)-c1cc3c(c(=O)n1C2)COC(=O)[C@]3(O)CC + C=CC(=O)N1CCN(c2nc(OCC3CCCN3C)nc3c(F)c(-c4nc(N)cc(C)c4C(F)(F)F)c(Cl)cc23)C(C)C1"
reading = 15.8


---

# Test system: 941728-121-R-J1-PDC complex spheroid viability
# TEST_SUMMARY: Anticancer human tumor 941728-121-R-J1-PDC cell line growth inhibition [RAS];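 further: spheroids exposed to compounds for 7 days before readout; 100% = DMSO vehicle control viability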
# SETUP_CONDITIONS: second compound 1 µM; first compound 1 µM; active compounds read low
Entries annotated with measured viability, T/C
READOUT_NAME: viability, T/C (%)

[[record]]
compound = "CC(=O)OC12COC1CC(O)C1(C)C(=O)C(O)C3=C(C)C(OC(=O)C(O)C(NC(=O)OC(C)(C)C)c4ccccc4)CC(O)(C(OC(=O)c4ccccc4)C21)C3(C)C (stereo unspecified) + C=CC(=O)N1CCN(c2nc(OCC3CCCN3C)nc3c(F)c(-c4nc(N)cc(C)c4C(F)(F)F)c(Cl)cc23)C(C)C1"
readout_name = "viability, T/C"
reading = 14.6

[[record]]
compound = "CC(C)NCC(C(=O)N1CCN(c2ncnc3c2C(C)CC3O)CC1)c1ccc(Cl)cc1 (stereo unspecified) + C=CC(=O)N1CCN(c2nc(OCC3CCCN3C)nc3c(F)c(-c4nc(N)cc(C)c4C(F)(F)F)c(Cl)cc23)C(C)C1"
readout_name = "viability, T/C"
reading = 12

[[record]]
compound = "CCC(CC)c1cc(NC2CCC(N)C2)n2nccc2n1 (stereo unspecified) + C#Cc1c(F)ccc2cc(O)cc(-c3ncc4c(N5CC6CCC(C5)N6)nc(OCC56CCCN5CC(F)C6)nc4c3F)c12"
readout_name = "viability, T/C"
reading = 46.2

[[record]]
compound = "Cc1nc(N2CCC3(CC2)COC(C)C3N)c(CO)nc1Sc1ccnc(N)c1Cl (stereo unspecified) + C=CC(=O)N1CCN(c2nc(OCC3CCCN3C)nc3c(F)c(-c4nc(N)cc(C)c4C(F)(F)F)c(Cl)cc23)C(C)C1"
readout_name = "viability, T/C"
reading = 16.1

[[record]]
compound = "CCN1CCN(Cc2ccc(Nc3ncc(F)c(-c4cc(F)c5nc(C)n(C(C)C)c5c4)n3)nc2)CC1 + C#Cc1c(F)ccc2cc(O)cc(-c3ncc4c(N5CC6CCC(C5)N6)nc(OCC56CCCN5CC(F)C6)nc4c3F)c12"
readout_name = "viability, T/C"
reading = 50.1

[[record]]
compound = "C=CC(=O)Nc1cc(Nc2nccc(-c3cn(C)c4ccccc34)n2)c(OC)cc1N(C)CCN(C)C + C#Cc1c(F)ccc2cc(O)cc(-c3ncc4c(N5CC6CCC(C5)N6)nc(OCC56CCCN5CC(F)C6)nc4c3F)c12"
readout_name = "viability, T/C"
reading = 30


---

Entries annotated with measured viability, T/C
# Tested on: 941728-121-R-J1-PDC complex spheroid viability
# TEST_SUMMARY: Anticancer human tumor 941728-121-R-J1-PDC cell line growth inhibition [RAS];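 further: spheroids exposed to compounds for 7 days before readout; 100% = DMSO vehicle control viability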
# SETUP_CONDITIONS: second compound 0.1 µM; first compound 0.1 µM; active compounds read low
READOUT_NAME: viability, T/C (%)

[[record]]
molecule = "C[C@@H](NC(=O)c1ncnc(N)c1Cl)c1ncc(C(=O)Nc2cc(C(F)(F)F)c(Cl)cn2)s1 + C=CC(=O)N1CCN(c2nc(OCC3CCCN3C)nc3c(F)c(-c4nc(N)cc(C)c4C(F)(F)F)c(Cl)cc23)C(C)C1"
readout_name = "viability, T/C"
endpoint_unit = "%"
reading = 24.9

[[record]]
molecule = "C=CC(=O)Nc1cc(Nc2nccc(-c3cn(C)c4ccccc34)n2)c(OC)cc1N(C)CCN(C)C + C=CC(=O)N1CCN(c2nc(OCC3CCCN3C)nc3c(F)c(-c4nc(N)cc(C)c4C(F)(F)F)c(Cl)cc23)C(C)C1"
readout_name = "viability, T/C"
endpoint_unit = "%"
reading = 15.8

[[record]]
molecule = "NC1c2ccccc2OC12CCN(c1cnc3c(N4CCCc5ncccc54)n[nH]c3n1)CC2 (stereo not given) + C=CC(=O)N1CCN(c2nc(OCC3CCCN3C)nc3c(F)c(-c4nc(N)cc(C)c4C(F)(F)F)c(Cl)cc23)C(C)C1"
readout_name = "viability, T/C"
endpoint_unit = "%"
reading = 15.3

[[record]]
molecule = "CC(=O)OC12COC1CC(O)C1(C)C(=O)C(O)C3=C(C)C(OC(=O)C(O)C(NC(=O)OC(C)(C)C)c4ccccc4)CC(O)(C(OC(=O)c4ccccc4)C21)C3(C)C (stereo not given) + C#Cc1c(F)ccc2cc(O)cc(-c3ncc4c(N5CC6CCC(C5)N6)nc(OCC56CCCN5CC(F)C6)nc4c3F)c12"
readout_name = "viability, T/C"
endpoint_unit = "%"
reading = 36.1

[[record]]
molecule = "CCC(CC)c1cc(NC2CCC(N)C2)n2nccc2n1 (stereo not given) + C=CC(=O)N1CCN(c2nc(OCC3CCCN3C)nc3c(F)c(-c4nc(N)cc(C)c4C(F)(F)F)c(Cl)cc23)C(C)C1"
readout_name = "viability, T/C"
endpoint_unit = "%"
reading = 18.3


---

# System: 941728-121-R-J1-PDC complex spheroid viability
# TEST_SUMMARY: Anticancer human tumor 941728-121-R-J1-PDC cell line growth inhibition [RAS];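 further: spheroids exposed to compounds for 7 days before readout; 100% = DMSO vehicle control viability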
# SETUP_CONDITIONS: second compound 0.00949 µM; first compound 0.01 µM; active compounds read low
Entries annotated with measured viability, T/C
READOUT_NAME: viability, T/C (%)

[[record]]
compound = "CCN1CCN(Cc2ccc(Nc3ncc(F)c(-c4cc(F)c5nc(C)n(C(C)C)c5c4)n3)nc2)CC1 + CCn1c(-c2cc(N3CCN(C)CC3)cnc2C(C)OC)c2c3cc(ccc31)-c1csc(n1)CC(NC(=O)C1CC1C)C(=O)N1CCCC(N1)C(=O)OCC(C)(C)C2"
reading = 13.4

[[record]]
compound = "CC(C)n1nc(-c2ccc3oc(N)nc3c2)c2c(N)ncnc21 + CCn1c(-c2cccnc2C(C)OC)c2c3cc(ccc31)N1CCOC(CC(NC(=O)C(C(C)C)N(C)C(=O)C3(F)CCN(C(=O)C#CC(C)(C)N(C)C)CC3)C(=O)N3CCCC(N3)C(=O)OCC(C)(C)C2)C1"
reading = 15.3

[[record]]
compound = "CC(C)n1nc(-c2ccc3oc(N)nc3c2)c2c(N)ncnc21 + CCn1c(-c2cc(N3CCN(C)CC3)cnc2C(C)OC)c2c3cc(ccc31)-c1csc(n1)CC(NC(=O)C1CC1C)C(=O)N1CCCC(N1)C(=O)OCC(C)(C)C2"
reading = 11.6

[[record]]
compound = "O=C(c1ccc(F)c(F)c1Nc1ccc(I)cc1F)N1CC(O)([C@@H]2CCCCN2)C1 + CCn1c(-c2cccnc2C(C)OC)c2c3cc(ccc31)N1CCOC(CC(NC(=O)C(C(C)C)N(C)C(=O)C3(F)CCN(C(=O)C#CC(C)(C)N(C)C)CC3)C(=O)N3CCCC(N3)C(=O)OCC(C)(C)C2)C1"
reading = 15.4


---

# Test system: 941728-121-R-J1-PDC complex spheroid viability
# TEST_SUMMARY: Anticancer human tumor 941728-121-R-J1-PDC cell line growth inhibition [RAS];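 further: spheroids exposed to compounds for 7 days before readout; 100% = DMSO vehicle control viability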
# SETUP_CONDITIONS: second compound 0.0316 µM; first compound 0.01 µM; active compounds read low
READOUT_NAME: viability, T/C (%)

[[record]]
molecule = "Nc1ccn(C2OC(CO)C(O)C2(F)F)c(=O)n1 (stereo unspecified) + C=CC(=O)N1CCN(c2nc(OCC3CCCN3C)nc3c(F)c(-c4nc(N)cc(C)c4C(F)(F)F)c(Cl)cc23)C(C)C1"
readout_name = "viability, T/C"
reading = 15.6

[[record]]
molecule = "C=CC(=O)Nc1cc(Nc2nccc(-c3cn(C)c4ccccc34)n2)c(OC)cc1N(C)CCN(C)C + C=CC(=O)N1CCN(c2nc(OCC3CCCN3C)nc3c(F)c(-c4nc(N)cc(C)c4C(F)(F)F)c(Cl)cc23)C(C)C1"
readout_name = "viability, T/C"
reading = 16.9

[[record]]
molecule = "Nc1ccn(C2OC(CO)C(O)C2(F)F)c(=O)n1 (stereo unspecified) + C#Cc1c(F)ccc2cc(O)cc(-c3ncc4c(N5CC6CCC(C5)N6)nc(OCC56CCCN5CC(F)C6)nc4c3F)c12"
readout_name = "viability, T/C"
reading = 54

[[record]]
molecule = "CCN1CCN(Cc2ccc(Nc3ncc(F)c(-c4cc(F)c5nc(C)n(C(C)C)c5c4)n3)nc2)CC1 + C=CC(=O)N1CCN(c2nc(OCC3CCCN3C)nc3c(F)c(-c4nc(N)cc(C)c4C(F)(F)F)c(Cl)cc23)C(C)C1"
readout_name = "viability, T/C"
reading = 20.1

[[record]]
molecule = "CC(C)n1nc(-c2ccc3oc(N)nc3c2)c2c(N)ncnc21 + C#Cc1c(F)ccc2cc(O)cc(-c3ncc4c(N5CC6CCC(C5)N6)nc(OCC56CCCN5CC(F)C6)nc4c3F)c12"
readout_name = "viability, T/C"
reading = 39.2

[[record]]
molecule = "CC(C)n1nc(-c2ccc3oc(N)nc3c2)c2c(N)ncnc21 + C=CC(=O)N1CCN(c2nc(OCC3CCCN3C)nc3c(F)c(-c4nc(N)cc(C)c4C(F)(F)F)c(Cl)cc23)C(C)C1"
readout_name = "viability, T/C"
reading = 14.4

[[record]]
molecule = "C=CC(=O)N1CCN(c2nc(OCC3CCCN3C)nc3c(F)c(-c4nc(N)cc(C)c4C(F)(F)F)c(Cl)cc23)C(C)C1 (stereo unspecified) + C#Cc1c(F)ccc2cc(O)cc(-c3ncc4c(N5CC6CCC(C5)N6)nc(OCC56CCCN5CC(F)C6)nc4c3F)c12"
readout_name = "viability, T/C"
reading = 20.1

[[record]]
molecule = "CCN1CCN(Cc2ccc(Nc3ncc(F)c(-c4cc(F)c5nc(C)n(C(C)C)c5c4)n3)nc2)CC1 + C#Cc1c(F)ccc2cc(O)cc(-c3ncc4c(N5CC6CCC(C5)N6)nc(OCC56CCCN5CC(F)C6)nc4c3F)c12"
readout_name = "viability, T/C"
reading = 70.4

[[record]]
molecule = "O=C(c1ccc(F)c(F)c1Nc1ccc(I)cc1F)N1CC(O)([C@@H]2CCCCN2)C1 + C=CC(=O)N1CCN(c2nc(OCC3CCCN3C)nc3c(F)c(-c4nc(N)cc(C)c4C(F)(F)F)c(Cl)cc23)C(C)C1"
readout_name = "viability, T/C"
reading = 13.8

[[record]]
molecule = "C=CC(=O)Nc1cc(Nc2nccc(-c3cn(C)c4ccccc34)n2)c(OC)cc1N(C)CCN(C)C + C#Cc1c(F)ccc2cc(O)cc(-c3ncc4c(N5CC6CCC(C5)N6)nc(OCC56CCCN5CC(F)C6)nc4c3F)c12"
readout_name = "viability, T/C"
reading = 70.4

[[record]]
molecule = "O=C(c1ccc(F)c(F)c1Nc1ccc(I)cc1F)N1CC(O)([C@@H]2CCCCN2)C1 + C#Cc1c(F)ccc2cc(O)cc(-c3ncc4c(N5CC6CCC(C5)N6)nc(OCC56CCCN5CC(F)C6)nc4c3F)c12"
readout_name = "viability, T/C"
reading = 55.9

